Target: UniProtKB Q9NYK1
Sequence (Q9NYK1 27-1049): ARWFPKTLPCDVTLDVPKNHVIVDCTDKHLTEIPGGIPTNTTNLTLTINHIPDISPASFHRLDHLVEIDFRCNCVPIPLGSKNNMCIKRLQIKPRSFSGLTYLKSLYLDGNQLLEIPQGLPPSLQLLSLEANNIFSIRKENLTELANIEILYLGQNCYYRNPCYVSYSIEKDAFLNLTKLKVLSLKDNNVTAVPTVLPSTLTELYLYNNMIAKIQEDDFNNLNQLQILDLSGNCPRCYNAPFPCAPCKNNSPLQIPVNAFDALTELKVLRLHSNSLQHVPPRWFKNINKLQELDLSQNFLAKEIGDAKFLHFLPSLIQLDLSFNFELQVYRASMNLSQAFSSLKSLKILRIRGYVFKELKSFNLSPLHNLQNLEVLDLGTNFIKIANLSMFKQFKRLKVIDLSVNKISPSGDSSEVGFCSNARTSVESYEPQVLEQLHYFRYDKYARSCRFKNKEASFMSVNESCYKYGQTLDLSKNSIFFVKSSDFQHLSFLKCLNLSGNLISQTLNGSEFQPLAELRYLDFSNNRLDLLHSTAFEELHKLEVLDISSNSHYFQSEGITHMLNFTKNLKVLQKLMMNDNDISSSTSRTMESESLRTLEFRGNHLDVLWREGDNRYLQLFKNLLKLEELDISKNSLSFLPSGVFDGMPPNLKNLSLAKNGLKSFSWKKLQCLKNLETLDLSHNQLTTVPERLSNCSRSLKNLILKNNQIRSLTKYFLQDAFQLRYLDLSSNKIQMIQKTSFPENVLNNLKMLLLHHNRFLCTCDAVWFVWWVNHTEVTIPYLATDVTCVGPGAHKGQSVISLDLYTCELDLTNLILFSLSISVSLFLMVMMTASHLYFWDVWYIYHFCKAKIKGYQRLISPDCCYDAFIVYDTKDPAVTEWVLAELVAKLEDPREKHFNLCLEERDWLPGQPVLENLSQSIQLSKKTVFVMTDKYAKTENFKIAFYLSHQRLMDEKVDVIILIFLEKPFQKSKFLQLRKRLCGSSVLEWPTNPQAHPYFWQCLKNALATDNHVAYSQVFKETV
Assay: Agonistic effect on human TLR7 (HEK-Blue hTLR7 cells)
Settings: HEK-Blue hTLR7 stably transfected cells
measured_parameter: EC50 (nM)
Numbers only, in nM.

query: Supply measured EC50 of CCCCOc1nc(N)c2cnn(Cc3ccc(CN4CCCC4)cc3)c2n1 [compound represented by formula (I)] in your reply.
result: 28

* * *

Biological target: CYP3A4 (Homo sapiens)
Construct: CYP3A4 in human liver microsome; tissue Corning Gentest; host or cells: human liver microsomes
Sequence (P08684 whole entry): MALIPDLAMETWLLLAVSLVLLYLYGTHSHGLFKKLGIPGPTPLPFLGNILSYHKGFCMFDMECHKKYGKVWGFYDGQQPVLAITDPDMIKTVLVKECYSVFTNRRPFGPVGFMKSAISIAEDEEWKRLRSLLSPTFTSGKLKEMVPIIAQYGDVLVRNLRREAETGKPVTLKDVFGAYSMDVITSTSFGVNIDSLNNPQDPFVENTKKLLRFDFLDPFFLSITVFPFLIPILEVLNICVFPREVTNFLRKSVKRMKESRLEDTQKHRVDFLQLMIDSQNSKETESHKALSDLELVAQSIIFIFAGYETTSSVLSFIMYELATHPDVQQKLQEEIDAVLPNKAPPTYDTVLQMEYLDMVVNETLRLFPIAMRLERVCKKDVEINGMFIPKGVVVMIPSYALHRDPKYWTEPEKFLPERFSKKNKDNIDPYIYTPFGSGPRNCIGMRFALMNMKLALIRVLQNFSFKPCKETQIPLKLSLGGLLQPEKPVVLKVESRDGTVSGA
Test: Inhibition of testosterone metabolite site of CYP3A4 in human liver microsome
Type: in vitro ADME
Details: testosterone probe
measured_parameter: IC50 (µM)
Give bare numbers, in µM.

query: Supply measured IC50 of CCCCOc1nc(N)c2cnn(Cc3ccc(CN4CCCC4)cc3)c2n1 in your reply.
result: 4

* * *

Assay: Solubility in PBS 7.4 and FaSSIF solutions
Type: physicochemical
Conditions: FaSSIF solution, fassif, thermodynamic from solid; read-out: FasSIF Solubility
I'd appreciate it if you could supply solubility values for the items below.
Give bare numbers, in µg/mL.

{"columns": ["compound", "u", "readout_value"],
 "data": [
  ["CCCCOc1nc(N)c2cnn(Cc3ccc(CN4CCCC4)cc3)c2n1.Cl.Cl [crystal form I]", "µg/mL", 1250]
]}

Attention now turns to another entry.
query: Supply measured solubility of CCCCOc1nc(N)c2cnn(Cc3ccc(CN4CCCC4)cc3)c2n1 in your reply.
result: 1090

* * *

I'd appreciate it if you could supply solubility values for the items below.
Experiment: Solubility in PBS 7.4 and FaSSIF solutions
Type: physicochemical
Conditions: PBS 7.4, pH 7.4, aqueous buffer, thermodynamic from solid; read-out: PBS 7.4 Solubility
Give bare numbers, in µg/mL.

{"columns": ["compound", "measured_parameter", "readout_value"],
 "data": [
  ["CCCCOc1nc(N)c2cnn(Cc3ccc(CN4CCCC4)cc3)c2n1.Cl.Cl [crystal form I]", "solubility", 50]
]}

Attention now turns to another entry.
query: Supply measured solubility of CCCCOc1nc(N)c2cnn(Cc3ccc(CN4CCCC4)cc3)c2n1 [compound represented by formula (I)] in your reply.
result: 30

* * *

Target: UniProtKB P10635
Sequence (P10635 whole entry): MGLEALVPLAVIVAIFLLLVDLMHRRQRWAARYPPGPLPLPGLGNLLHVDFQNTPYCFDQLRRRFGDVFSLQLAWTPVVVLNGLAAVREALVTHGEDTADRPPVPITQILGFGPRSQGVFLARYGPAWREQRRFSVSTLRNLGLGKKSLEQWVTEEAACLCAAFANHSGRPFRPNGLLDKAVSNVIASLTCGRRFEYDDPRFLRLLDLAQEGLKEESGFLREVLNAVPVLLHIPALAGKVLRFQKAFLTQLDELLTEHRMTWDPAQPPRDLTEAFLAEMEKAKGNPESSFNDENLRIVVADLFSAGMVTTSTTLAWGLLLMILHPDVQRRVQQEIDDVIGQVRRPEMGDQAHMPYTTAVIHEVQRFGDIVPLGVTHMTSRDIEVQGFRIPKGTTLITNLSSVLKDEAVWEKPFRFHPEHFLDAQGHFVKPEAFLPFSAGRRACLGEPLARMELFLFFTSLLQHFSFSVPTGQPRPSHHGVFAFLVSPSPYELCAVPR
measured_parameter: IC50

query: Lab note: record IC50 of CCCCOc1nc(N)c2cnn(Cc3ccc(CN4CCCC4)cc3)c2n1 [compound represented by formula (I)] tested on UniProtKB P10635.
result: > 30 µM

* * *

Target: CYP3A4 (Homo sapiens)
Construct: CYP3A4 in human liver microsome; tissue Corning Gentest; host or cells: human liver microsomes
Experiment: Inhibition of midazolam metabolite site of CYP3A4 in human liver microsome
Format: in vitro ADME
Settings: midazolam probe
measured_parameter: pIC50
Numbers only, as −log10 of the molar value.

query: Supply measured pIC50 of CCCCOc1nc(N)c2cnn(Cc3ccc(CN4CCCC4)cc3)c2n1 [compound represented by formula (I)] in your reply.
result: 4.85

* * *

Assay: Log D
Format: physicochemical
measured_parameter: logD
Numbers only.

query: Supply measured logD of CCCCOc1nc(N)c2cnn(Cc3ccc(CN4CCCC4)cc3)c2n1.Cl.Cl [crystal form I, dihydrochloride] in your reply.
result: 1.17
